Each recorded value in this set is attributed to patent US20160045505A1.

System: Leishmania donovani axenic amastigote parasites
protocol summary: Leishmania donovani axenic amastigote proliferation assay (Cell TiterGlo luminescence, 2 day incubation)
Assay type: cell-based
run parameters: Leishmania donovani, L. donovani axenic amastigotes; read-out: L. donovani amastigotes EC50
# key: entry, value: EC50

compound: Cc1cncc(-c2cnc3nc(-c4cc(NC(=O)c5oc(C)nc5C)ccc4F)cn3c2)c1 [Compound 440]
censor symbol: =
EC50 (nM): 119

compound: Cc1nc(C)c(C(=O)Nc2ccc(F)c(-c3cn4cc(-c5ncccc5F)cnc4n3)c2)o1 [Compound 449]
censor symbol: =
EC50 (nM): 28

compound: COC1CCC(C(=O)Nc2ccc(F)c(-c3cn4cc(C5CC5)cnc4n3)c2)CC1 (centres unmarked) [Compound 597]
censor symbol: =
EC50 (nM): 24100

compound: CNc1ccc(-c2cnc3nc(-c4cc(NC(=O)c5oc(C)nc5C)ccc4F)cn3c2)nc1 [Compound 432]
censor symbol: =
EC50 (nM): 12

compound: COc1cnc2nc(-c3cc(NC(=O)c4oc(C)nc4C)ccc3F)cn2c1 [Compound 607]
censor symbol: =
EC50 (nM): 705

compound: Cc1nc(C)c(C(=O)Nc2ccc(F)c(-c3cn4cc(-c5cscn5)cnc4n3)c2)o1 [Compound 374]
censor symbol: =
EC50 (nM): 40

compound: COCCN1CCC(c2cnc3nc(-c4cc(NC(=O)c5oc(C)nc5C)ccc4F)cn3c2)CC1 [Compound 540]
censor symbol: >
EC50 (nM): 25000

compound: Cc1nc(C)c(C(=O)Nc2ccc(F)c(-c3cn4cc(N5CCOCC5)cnc4n3)c2)o1 [Compound 490]
censor symbol: =
EC50 (nM): 134

---

Tested on: Trypanosoma cruzi amastigotes (Tulahuen strain expressing Lac-Z) cultured in 3T3 fibroblast cells
protocol summary: microbe, parasite or virus in culture
Format: cell-based
run parameters: Trypanosoma cruzi, TULAHUEN, Fibroblast, T. cruzi amastigotes in 3T3 fibroblast cells; read-out: T cruzi EC50
# key: entry, value: EC50

compound smiles: Cc1nc(C)c(C(=O)Nc2ccc(F)c(-c3cn4cc(N(C)C(=O)OC(C)C)cnc4n3)c2)o1
EC50 / µM: 0.326
--
compound smiles: CC(C)OC(=O)N(C)c1cnc2nc(-c3cc(NC(=O)c4ccco4)ccc3Cl)cn2c1
EC50 / µM: 0.139
--
compound smiles: Cc1nc(C)c(C(=O)Nc2ccc(F)c(-c3cn4cc(-c5ncccc5C)cnc4n3)c2)o1
EC50 / µM: 0.015
--
compound smiles: CCN(C)C(=O)Nc1ccc(F)c(-c2cn3cc(-c4ccccn4)cnc3n2)c1
EC50 / µM: 0.445
--
compound smiles: Cc1cccc(-c2cnc3nc(-c4cc(NC(=O)N5CCCC5)ccc4F)cn3c2)n1
EC50 / µM: 0.215
--
compound smiles: COCCOc1cnc2nc(-c3cc(NC(=O)c4oc(C)nc4C)ccc3F)cn2c1
EC50 / µM: 1.36
--
compound smiles: Cc1nc(C)c(C(=O)Nc2ccc(F)c(-c3cn4cc(OCC5CC5)cnc4n3)c2)o1
EC50 / µM: 0.109
--
compound smiles: Cc1nc(C)c(C(=O)Nc2ccc(F)c(-c3cn4cc([Si](C)(C)C)cnc4n3)c2)o1
EC50 / µM: 0.063
--
compound smiles: Cc1nc(C)c(C(=O)Nc2ccc(F)c(-c3cn4cc(-c5cnn(CCN6CCOCC6)c5)cnc4n3)c2)o1
EC50 / µM: 3.53
--
compound smiles: Cc1nc(C)c(C(=O)Nc2ccc(F)c(-c3cn4cc(OC(C)C)cnc4n3)c2)o1
EC50 / µM: 0.132
--
compound smiles: CC(C)c1cnc2nc(-c3cc(NC(=O)N4CCC4)ccc3F)cn2c1
EC50 / µM: 0.046
--
compound smiles: COc1cccc(-c2cnc3nc(-c4cc(NC(=O)c5oc(C)nc5C)ccc4F)cn3c2)n1
EC50 / µM: 0.043
--
compound smiles: COc1cnc2nc(-c3cc(NC(=O)c4oc(C)nc4C)ccc3F)cn2c1
EC50 / µM: 0.437
--
compound smiles: O=C(Nc1ccc(F)c(-c2cn3cc(-c4ccccn4)cnc3n2)c1)N1CCC1
EC50 / µM: 0.017
--
compound smiles: CC(C)OC(=O)Nc1cnc2nc(-c3cc(Nc4nccc5ccoc45)ccc3F)cn2c1
EC50 / µM: 0.112
--
compound smiles: Cc1nc(C)c(C(=O)Nc2ccc(F)c(-c3cn4cc(C#CCCN5CCN(C)CC5)cnc4n3)c2)o1
EC50 / µM: 3.85
